Biological target: metallo-beta-lactamase (class B) 5/B/6 (Bacillus cereus) (UniProt P14488)
Sequence: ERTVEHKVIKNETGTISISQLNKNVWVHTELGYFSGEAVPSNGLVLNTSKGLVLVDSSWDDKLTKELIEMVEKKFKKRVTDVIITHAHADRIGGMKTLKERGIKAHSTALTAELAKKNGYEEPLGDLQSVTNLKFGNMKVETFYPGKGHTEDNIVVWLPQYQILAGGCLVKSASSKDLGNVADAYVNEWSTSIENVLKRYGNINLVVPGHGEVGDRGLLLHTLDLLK
Test: inhibition
Conditions: cephalosporin C 4 mM; MOPS pH 7.0, 30 C, no added Zn2+
outcome.measure: pIC50
// pIC50: -log10(molar conc.)

Please give the documented pIC50 of ATGATCCGGTGCTGTATGTTCCTACATGA (double strand) [ds 29-mer]
7.85

* * *

Target: metallo-beta-lactamase (class B) 5/B/6 (Bacillus cereus)
Sequence: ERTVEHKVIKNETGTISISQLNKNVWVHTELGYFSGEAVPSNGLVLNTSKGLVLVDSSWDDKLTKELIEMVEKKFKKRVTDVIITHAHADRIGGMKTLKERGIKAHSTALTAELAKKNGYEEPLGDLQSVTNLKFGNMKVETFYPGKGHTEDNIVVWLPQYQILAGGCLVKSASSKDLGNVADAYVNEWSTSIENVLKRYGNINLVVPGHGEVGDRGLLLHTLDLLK
Experiment: inhibition
Settings: noncompetitive; KI' 9.1 nM; MOPS pH 7.0, 30 C, no added Zn2+
outcome.measure: pKi
pKi (log units): -log10 of the concentration in mol/L.

Hello, please tell me recorded pKi for this one: ATGATCCGGTGCTGTATGTTCCTACATGA (double strand) [ds 29-mer]
7.96
